assay: Human HepG2 cell viability assay in 384 well format; format: toxicity, cell-based; parameters: dose 125 nL, time 70.5 hour; concentration not given beside the values; conditions: HepG2 cells, read-out: Inhibition

>  <compound>
Cc1cc(C)n(CCNc2ncnc3c2NC(=O)CN3)n1

>  <unit info>
%

>  <cytotoxicity at 70.5 h>
-15.7

$$$$
>  <compound>
CC(NC(=O)OC(C)(C)C)c1nnc(S(=O)(=O)Cc2ccccc2Cl)o1 (stereo unspecified)

>  <unit info>
%

>  <cytotoxicity at 70.5 h>
-4.85

$$$$
>  <compound>
CN(Cc1ccc2c(c1)OCO2)C(=O)c1ccn(C)c(=O)c1

>  <unit info>
%

>  <cytotoxicity at 70.5 h>
-10.8

$$$$
>  <compound>
Cc1nc(CN2CCN(S(=O)(=O)N3CCCCC3)CC2)oc1C

>  <unit info>
%

>  <cytotoxicity at 70.5 h>
-4.75

$$$$
>  <compound>
O=C(O)c1cc2c(nc1N1CCOCC1)CCN(C1CCOC1)CC2 (stereo unspecified)

>  <unit info>
%

>  <cytotoxicity at 70.5 h>
-4.23

$$$$
>  <compound>
COc1ccc(-c2n[nH]cc2CN(C)Cc2nnc(C)o2)c(F)c1

>  <unit info>
%

>  <cytotoxicity at 70.5 h>
1.72

$$$$
>  <compound>
Cn1cc(CNC(=O)NCCOc2ccc(F)c(F)c2)cn1

>  <unit info>
%

>  <cytotoxicity at 70.5 h>
-0.0625

$$$$
>  <compound>
COc1cc(C2CC(=O)Oc3cc(C)[nH]c(=O)c32)ccc1OC(F)F (stereo unspecified)

>  <unit info>
%

>  <cytotoxicity at 70.5 h>
10.5

$$$$
>  <compound>
COCCNC(=O)N1CCN(C(=O)Cc2ccccc2F)CC1

>  <unit info>
%

>  <cytotoxicity at 70.5 h>
-8.11

$$$$
>  <compound>
CCOc1ccc(C2C3=C(O)OCC3=Nc3nc(SC)nc(N)c32)cc1 (stereo unspecified)

>  <unit info>
%

>  <cytotoxicity at 70.5 h>
9.83

$$$$
>  <compound>
CC(C)N1CCC(Cc2cncc(-c3cc(F)ccc3C(=O)O)n2)C1 (stereo unspecified)

>  <unit info>
%

>  <cytotoxicity at 70.5 h>
-6.34

$$$$
